- settings: pig, liver, iv, 200 µg/kg BW
Give concentration at 6 h for every item shown.
Supply the numeric figure in ng/g, leaving out any unit text.

INPUT: Requested read-out: concentration at 6 h. Entry: "CCCCCn1cc(C(=O)c2ccc(CC)c3ccccc23)c2ccccc21"
OUTPUT: 14

INPUT: Requested read-out: concentration at 6 h. Entry: CCCCCc1cc(O)c2c(c1)OC(C)(C)[C@@H]1CCC(C)=C[C@@H]21 [THC, ∆9-tetrahydrocannabinol]
OUTPUT: 18

* * *

- settings: pig, kidney (right), iv, 200 µg/kg BW
quantity.name: concentration at 6 h (ng/g)
Supply the numeric figure in ng/g, leaving out any unit text.

INPUT: Requested read-out: concentration at 6 h. Entry: CCCCCc1cc(O)c2c(c1)OC(C)(C)[C@@H]1CCC(C)=C[C@@H]21 [THC, ∆9-tetrahydrocannabinol]
OUTPUT: 21

INPUT: Requested read-out: concentration at 6 h. Entry: "CCCCCn1cc(C(=O)c2ccc(CC)c3ccccc23)c2ccccc21"
OUTPUT: 53
